Target: glucocorticoid receptor (Homo sapiens)
Sequence (P04150 524-777 limits assumed): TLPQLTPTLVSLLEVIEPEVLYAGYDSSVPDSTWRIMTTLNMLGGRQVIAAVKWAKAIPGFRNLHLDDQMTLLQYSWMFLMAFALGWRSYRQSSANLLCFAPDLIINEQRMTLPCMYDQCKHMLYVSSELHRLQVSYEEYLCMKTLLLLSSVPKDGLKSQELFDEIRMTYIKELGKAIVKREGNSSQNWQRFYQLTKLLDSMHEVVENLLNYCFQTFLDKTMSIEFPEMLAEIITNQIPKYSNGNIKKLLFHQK
observable: pKi
Scale: pKi equals -log10([C]), with [C] in mol/L.

Exercise: Tell us which pKi value is on record for CC1(C)O[C@@H]2C[C@H]3[C@@H]4C[C@H](F)C5=CC(=O)C=C[C@]5(C)[C@@]4(F)[C@@H](O)C[C@]3(C)[C@]2(C(=O)CO)O1 [FA, fluocinolone acetonide]
Solution: 9.01

Exercise: Using known records, supply pKi for CC1(C)O[C@@H]2C[C@H]3[C@@H]4CCC5=CC(=O)C=C[C@]5(C)[C@@]4(F)[C@@H](O)C[C@]3(C)[C@]2(C(=O)CO)O1 [TA, triamcinolone acetonide]
Solution: 9.14

Origin of values: paper PMC2749862
